Target or system: E. coli RNase P holoenzyme (M1 P RNA + rnpA protein) (UniProt P0A7Y8)
Sequence: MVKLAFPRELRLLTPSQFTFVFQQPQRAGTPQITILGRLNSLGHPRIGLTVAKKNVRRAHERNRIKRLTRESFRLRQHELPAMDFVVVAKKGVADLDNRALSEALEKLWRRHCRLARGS
Run description: relative kcat/Km (krel) vs genomic leader AAAGAU (relative (reference leader = 1)); higher = faster RNase P cleavage
Condition details: fraction of substrate reacted: ~26-29% (28.66% repeat 1, 26.4% repeat 2)
The full ranking holds about 4,100 sequences; the median of “relative kcat/Km (krel) vs genomic leader AAAGAU” is about 1.7, and the highest 2% start at about 6.5. The full list was thinned out, with the highest values kept by preference.
Classification field: enter satisfied for relative kcat/Km values not below 4, not satisfied for values below it.

QUERY: Given "ATCTAC" , state whether its relative kcat/Km is at least 4.
RESULT: satisfied

QUERY: Given "TTGCTA" , state whether its relative kcat/Km is at least 4.
RESULT: not satisfied

QUERY: Given "GGCTAT" , state whether its relative kcat/Km is at least 4.
RESULT: not satisfied

QUERY: Given "CTCGAC" , state whether its relative kcat/Km is at least 4.
RESULT: satisfied

QUERY: Given "CACGTA" , state whether its relative kcat/Km is at least 4.
RESULT: not satisfied

QUERY: Given "ACATAC" , state whether its relative kcat/Km is at least 4.
RESULT: satisfied

QUERY: Given "GCCGTA" , state whether its relative kcat/Km is at least 4.
RESULT: not satisfied

QUERY: Given "GGGGCG" , state whether its relative kcat/Km is at least 4.
RESULT: not satisfied

QUERY: Given "CTTTTA" , state whether its relative kcat/Km is at least 4.
RESULT: not satisfied

QUERY: Given "CACGAA" , state whether its relative kcat/Km is at least 4.
RESULT: satisfied

QUERY: Given "GTCTAT" , state whether its relative kcat/Km is at least 4.
RESULT: satisfied

QUERY: Given "CACGCA" , state whether its relative kcat/Km is at least 4.
RESULT: satisfied

QUERY: Given "ATCTGT" , state whether its relative kcat/Km is at least 4.
RESULT: not satisfied

QUERY: Given "GACGAC" , state whether its relative kcat/Km is at least 4.
RESULT: satisfied

QUERY: Given "CTATCT" , state whether its relative kcat/Km is at least 4.
RESULT: satisfied

QUERY: Given "AATACA" , state whether its relative kcat/Km is at least 4.
RESULT: not satisfied

QUERY: Given "GACGAT" , state whether its relative kcat/Km is at least 4.
RESULT: not satisfied

QUERY: Given "TCTCGG" , state whether its relative kcat/Km is at least 4.
RESULT: not satisfied

QUERY: Given "AGCTAC" , state whether its relative kcat/Km is at least 4.
RESULT: satisfied

QUERY: Given "GACGAG" , state whether its relative kcat/Km is at least 4.
RESULT: not satisfied

QUERY: Given "GCACGT" , state whether its relative kcat/Km is at least 4.
RESULT: not satisfied

###

Target or system: E. coli RNase P holoenzyme (M1 P RNA + rnpA protein)
Sequence: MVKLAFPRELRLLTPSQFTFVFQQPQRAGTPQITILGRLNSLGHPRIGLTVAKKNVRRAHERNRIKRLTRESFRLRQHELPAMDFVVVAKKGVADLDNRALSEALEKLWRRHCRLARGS
Run description: relative kcat/Km (krel) vs genomic leader AAAGAU (relative (reference leader = 1)); higher = faster RNase P cleavage
Condition details: fraction of substrate reacted: ~13-16% (15.68% repeat 1, 13.17% repeat 2)
In all, about 4,100 sequences were measured (“relative kcat/Km (krel) vs genomic leader AAAGAU”: median about 1.7, highest 2% from about 6.5 on). This is one part of a sample in which the highest values are shown more often than they occur.
Please respond with reported relative kcat/Km for every item in the list.
Just the number, please.

Reading of relative kcat/Km for "TACCAC" with E. coli RNase P holoenzyme (M1 P RNA + rnpA protein): 4.03

Reading of relative kcat/Km for "GCCATT" with E. coli RNase P holoenzyme (M1 P RNA + rnpA protein): 2.36

Reading of relative kcat/Km for "GCCCAG" with E. coli RNase P holoenzyme (M1 P RNA + rnpA protein): 0.933

Reading of relative kcat/Km for "TGCTAG" with E. coli RNase P holoenzyme (M1 P RNA + rnpA protein): 1.38

Reading of relative kcat/Km for "ATCTAG" with E. coli RNase P holoenzyme (M1 P RNA + rnpA protein): 3.16

Reading of relative kcat/Km for "GTATAT" with E. coli RNase P holoenzyme (M1 P RNA + rnpA protein): 4.99

Reading of relative kcat/Km for "AGTAAT" with E. coli RNase P holoenzyme (M1 P RNA + rnpA protein): 3.38

Reading of relative kcat/Km for "GCAATT" with E. coli RNase P holoenzyme (M1 P RNA + rnpA protein): 0.851

Reading of relative kcat/Km for "GTATAC" with E. coli RNase P holoenzyme (M1 P RNA + rnpA protein): 4.72

Reading of relative kcat/Km for "TACCTT" with E. coli RNase P holoenzyme (M1 P RNA + rnpA protein): 3.78

Reading of relative kcat/Km for "ATATAG" with E. coli RNase P holoenzyme (M1 P RNA + rnpA protein): 1.77

Reading of relative kcat/Km for "ACCATT" with E. coli RNase P holoenzyme (M1 P RNA + rnpA protein): 2.84

Reading of relative kcat/Km for "ACCGAG" with E. coli RNase P holoenzyme (M1 P RNA + rnpA protein): 0.833

Reading of relative kcat/Km for "CTATAA" with E. coli RNase P holoenzyme (M1 P RNA + rnpA protein): 3.72

Reading of relative kcat/Km for "TCTCAC" with E. coli RNase P holoenzyme (M1 P RNA + rnpA protein): 4.45

Reading of relative kcat/Km for "TACCAG" with E. coli RNase P holoenzyme (M1 P RNA + rnpA protein): 2.64

Reading of relative kcat/Km for "AGCTAC" with E. coli RNase P holoenzyme (M1 P RNA + rnpA protein): 3.31

Reading of relative kcat/Km for "TTGAGA" with E. coli RNase P holoenzyme (M1 P RNA + rnpA protein): 2.31

Reading of relative kcat/Km for "GAGTTT" with E. coli RNase P holoenzyme (M1 P RNA + rnpA protein): 1.28

Reading of relative kcat/Km for "ACTCAC" with E. coli RNase P holoenzyme (M1 P RNA + rnpA protein): 2.87

Reading of relative kcat/Km for "CTTTTT" with E. coli RNase P holoenzyme (M1 P RNA + rnpA protein): 3.27

Reading of relative kcat/Km for "TCTCGG" with E. coli RNase P holoenzyme (M1 P RNA + rnpA protein): 0.684

Reading of relative kcat/Km for "ACCGAA" with E. coli RNase P holoenzyme (M1 P RNA + rnpA protein): 4.31

Reading of relative kcat/Km for "AACCAT" with E. coli RNase P holoenzyme (M1 P RNA + rnpA protein): 2.62

Reading of relative kcat/Km for "TCCATT" with E. coli RNase P holoenzyme (M1 P RNA + rnpA protein): 4.85

Reading of relative kcat/Km for "TGTCGC" with E. coli RNase P holoenzyme (M1 P RNA + rnpA protein): 2.92

Reading of relative kcat/Km for "GTGTAA" with E. coli RNase P holoenzyme (M1 P RNA + rnpA protein): 2.41

Reading of relative kcat/Km for "GTCTAA" with E. coli RNase P holoenzyme (M1 P RNA + rnpA protein): 7.55

Reading of relative kcat/Km for "AAACGA" with E. coli RNase P holoenzyme (M1 P RNA + rnpA protein): 1.89

Reading of relative kcat/Km for "ATCTAC" with E. coli RNase P holoenzyme (M1 P RNA + rnpA protein): 6.58

Reading of relative kcat/Km for "ATCTAA" with E. coli RNase P holoenzyme (M1 P RNA + rnpA protein): 5.55

Reading of relative kcat/Km for "AGCTAA" with E. coli RNase P holoenzyme (M1 P RNA + rnpA protein): 3.61

Reading of relative kcat/Km for "TTCTAA" with E. coli RNase P holoenzyme (M1 P RNA + rnpA protein): 7.17

Reading of relative kcat/Km for "CCCGAT" with E. coli RNase P holoenzyme (M1 P RNA + rnpA protein): 2.76

Reading of relative kcat/Km for "ATATAA" with E. coli RNase P holoenzyme (M1 P RNA + rnpA protein): 3.31

Reading of relative kcat/Km for "GGCGAT" with E. coli RNase P holoenzyme (M1 P RNA + rnpA protein): 1.52

Reading of relative kcat/Km for "ATCTGT" with E. coli RNase P holoenzyme (M1 P RNA + rnpA protein): 1.3

Reading of relative kcat/Km for "CTATCT" with E. coli RNase P holoenzyme (M1 P RNA + rnpA protein): 3.54

Reading of relative kcat/Km for "CTCTGT" with E. coli RNase P holoenzyme (M1 P RNA + rnpA protein): 1.81

Reading of relative kcat/Km for "CCCGAA" with E. coli RNase P holoenzyme (M1 P RNA + rnpA protein): 4.35

Reading of relative kcat/Km for "CTATGT" with E. coli RNase P holoenzyme (M1 P RNA + rnpA protein): 1.38

Reading of relative kcat/Km for "CCTTTC" with E. coli RNase P holoenzyme (M1 P RNA + rnpA protein): 2.39

Reading of relative kcat/Km for "CCCCAT" with E. coli RNase P holoenzyme (M1 P RNA + rnpA protein): 3.31

Reading of relative kcat/Km for "CGCTGA" with E. coli RNase P holoenzyme (M1 P RNA + rnpA protein): 2.02

Reading of relative kcat/Km for "GGTCGC" with E. coli RNase P holoenzyme (M1 P RNA + rnpA protein): 2.08

Reading of relative kcat/Km for "GTTAAG" with E. coli RNase P holoenzyme (M1 P RNA + rnpA protein): 1.6

Reading of relative kcat/Km for "ATCTCG" with E. coli RNase P holoenzyme (M1 P RNA + rnpA protein): 2.14

Reading of relative kcat/Km for "AATTAC" with E. coli RNase P holoenzyme (M1 P RNA + rnpA protein): 3.97

Reading of relative kcat/Km for "TACTCC" with E. coli RNase P holoenzyme (M1 P RNA + rnpA protein): 5.06

Reading of relative kcat/Km for "TTTCTA" with E. coli RNase P holoenzyme (M1 P RNA + rnpA protein): 2.3

Reading of relative kcat/Km for "TTTGAT" with E. coli RNase P holoenzyme (M1 P RNA + rnpA protein): 1.01

Reading of relative kcat/Km for "CTCTAT" with E. coli RNase P holoenzyme (M1 P RNA + rnpA protein): 6.38

Reading of relative kcat/Km for "TCCGAC" with E. coli RNase P holoenzyme (M1 P RNA + rnpA protein): 4.91

Reading of relative kcat/Km for "GATACC" with E. coli RNase P holoenzyme (M1 P RNA + rnpA protein): 1.49

Reading of relative kcat/Km for "GTCTAT" with E. coli RNase P holoenzyme (M1 P RNA + rnpA protein): 6.62

Reading of relative kcat/Km for "AGTCAA" with E. coli RNase P holoenzyme (M1 P RNA + rnpA protein): 4

Reading of relative kcat/Km for "GCTGTC" with E. coli RNase P holoenzyme (M1 P RNA + rnpA protein): 0.624

Reading of relative kcat/Km for "TTCTAG" with E. coli RNase P holoenzyme (M1 P RNA + rnpA protein): 4.58

Reading of relative kcat/Km for "GTATAA" with E. coli RNase P holoenzyme (M1 P RNA + rnpA protein): 4.18

Reading of relative kcat/Km for "CAGCTA" with E. coli RNase P holoenzyme (M1 P RNA + rnpA protein): 1.21

Reading of relative kcat/Km for "AACTCC" with E. coli RNase P holoenzyme (M1 P RNA + rnpA protein): 3.3

Reading of relative kcat/Km for "TAGCTT" with E. coli RNase P holoenzyme (M1 P RNA + rnpA protein): 2.04

Reading of relative kcat/Km for "CAAACG" with E. coli RNase P holoenzyme (M1 P RNA + rnpA protein): 0.172

Reading of relative kcat/Km for "TATTAG" with E. coli RNase P holoenzyme (M1 P RNA + rnpA protein): 2.95

Reading of relative kcat/Km for "GGATAA" with E. coli RNase P holoenzyme (M1 P RNA + rnpA protein): 2.37

Reading of relative kcat/Km for "GACCAT" with E. coli RNase P holoenzyme (M1 P RNA + rnpA protein): 3.91

Reading of relative kcat/Km for "CAGCAA" with E. coli RNase P holoenzyme (M1 P RNA + rnpA protein): 2.58

Reading of relative kcat/Km for "GGTAAG" with E. coli RNase P holoenzyme (M1 P RNA + rnpA protein): 0.931

Reading of relative kcat/Km for "TTATAT" with E. coli RNase P holoenzyme (M1 P RNA + rnpA protein): 5.95

Reading of relative kcat/Km for "TTATAA" with E. coli RNase P holoenzyme (M1 P RNA + rnpA protein): 4.53

Reading of relative kcat/Km for "AGTCAT" with E. coli RNase P holoenzyme (M1 P RNA + rnpA protein): 5

Reading of relative kcat/Km for "TTATAC" with E. coli RNase P holoenzyme (M1 P RNA + rnpA protein): 5.2

Reading of relative kcat/Km for "TATTAA" with E. coli RNase P holoenzyme (M1 P RNA + rnpA protein): 5.12

Reading of relative kcat/Km for "AATTAA" with E. coli RNase P holoenzyme (M1 P RNA + rnpA protein): 3.37

Reading of relative kcat/Km for "ACCATA" with E. coli RNase P holoenzyme (M1 P RNA + rnpA protein): 2.2

Reading of relative kcat/Km for "TCCGAT" with E. coli RNase P holoenzyme (M1 P RNA + rnpA protein): 2.91

Reading of relative kcat/Km for "GAACAG" with E. coli RNase P holoenzyme (M1 P RNA + rnpA protein): 0.667

Reading of relative kcat/Km for "TTCCTA" with E. coli RNase P holoenzyme (M1 P RNA + rnpA protein): 4.53

Reading of relative kcat/Km for "GTATAG" with E. coli RNase P holoenzyme (M1 P RNA + rnpA protein): 1.79

Reading of relative kcat/Km for "AGTCAG" with E. coli RNase P holoenzyme (M1 P RNA + rnpA protein): 1.91

Reading of relative kcat/Km for "GCCGAC" with E. coli RNase P holoenzyme (M1 P RNA + rnpA protein): 3.49

Reading of relative kcat/Km for "CCCGAG" with E. coli RNase P holoenzyme (M1 P RNA + rnpA protein): 0.888

Reading of relative kcat/Km for "ATGTCT" with E. coli RNase P holoenzyme (M1 P RNA + rnpA protein): 2.3

Reading of relative kcat/Km for "AGTCAC" with E. coli RNase P holoenzyme (M1 P RNA + rnpA protein): 4.99

Reading of relative kcat/Km for "TGCTAA" with E. coli RNase P holoenzyme (M1 P RNA + rnpA protein): 2.88

Reading of relative kcat/Km for "CTTCCC" with E. coli RNase P holoenzyme (M1 P RNA + rnpA protein): 1.5

Reading of relative kcat/Km for "TATTAC" with E. coli RNase P holoenzyme (M1 P RNA + rnpA protein): 5.68

Source of measurements: the supplement of paper PMC9433436
